Data origin: PubChem BioAssay

Reported cell count values for a set of molecules
- TEST: sensitizers of A549 cells to miR-34 induction, primary screen, imaging, A549 dox-inducible miR-34, nuclei and caspase counts (AID 1347080); further: test concentration not given here
- CONDITION_CONTEXT: A549 miR-34 inducible, Hoechst nuclei count, 48 h; measured here: total cells without miR-34 induction
I'd appreciate a reply containing only the number, no unit.

Take a look at these entries with their results.
Prompt: Record request: cell count value, item `C[C@H]1CC[C@]2(NC1)O[C@H]1C[C@H]3[C@@H]4CC[C@H]5C[C@@H](O)CC[C@]5(C)[C@H]4CC[C@]3(C)[C@H]1[C@@H]2C`
Completion: 11200

Prompt: Record request: cell count value, item Clc1ccc(C(Cn2ccnc2)OCc2ccc(Sc3ccccc3)cc2)c(Cl)c1 (stereo unspecified)
Completion: 8050

Prompt: Record request: cell count value, item `Cc1cccc(Cc2cnc[nH]2)c1C`
Completion: 7310

Prompt: Record request: cell count value, item Clc1ccc(C(OCCN2CCCCC2)c2ccccc2)cc1 (stereo unspecified)
Completion: 9510

Prompt: Record request: cell count value, item `C[C@@H](N)[C@@H](O)c1ccccc1`
Completion: 9410

Prompt: Record request: cell count value, item Nc1ncnc2c1ncn2[C@@H]1O[C@H](COP(=O)(O)CP(=O)(O)OP(=O)(O)O)[C@H](O)C1O (stereo partly specified)
Completion: 10600

Next:
Prompt: Record request: cell count value, item `CC(C)n1cnc2c(C(=O)N[C@H]3CN4CCC3CC4)cc(Cl)cc21`
Completion: 8630

Prompt: Record request: cell count value, item c1cncc(C2CCCN2)c1 (stereo unspecified)
Completion: 10500

Prompt: Record request: cell count value, item CNC(C)C(O)c1ccccc1 (stereo unspecified)
Completion: 12100

Prompt: Record request: cell count value, item O=C(NC1CN2CCC1CC2)c1cc2ccoc2cn1 (stereo unspecified)
Completion: 10300

Prompt: Record request: cell count value, item C[C@]12CC[C@H](O)CC1=CCC1C2CC[C@]2(C)C(=O)CC[C@@H]12 (stereo partly specified)
Completion: 7880
